Target: T1, DLG3_2, Q92796
T1 sequence (Q92796 221-321, limits assumed, looked up): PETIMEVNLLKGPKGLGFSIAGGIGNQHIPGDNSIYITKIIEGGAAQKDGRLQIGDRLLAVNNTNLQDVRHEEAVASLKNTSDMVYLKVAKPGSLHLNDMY
Experiment: holdup assay
Set-up: key: below the threshold = too weak to quantify, mostly under pKd 3.1 to 4
Conditions: plain residues with an end cap or a label only (N-terminal biotin on a linker: ttds)
measured.attribute: pKd
Lab note: record the figure alone, no unit after it.

Input line: # get_value(readout='pKd', item= RSLEEEESQL [GRASP, Q7Z6J2] )
Output line: 3.63

Input line: Value lookup for pKd; key = SVWLRKETRV [CYSLTR2, Q9NS75]
Output line: 5.32

Input line: # lookup: pKd of TVASEKESVM [SLC1A5, Q15758]
Output line: 3.55

All values here come from paper PMC9482650.
